Here, each record is paired with measured pIC50 data.
- system_under_test: Recombinant human DGAT2 protein (Homo sapiens)
- Construct: FLAG (DYKDDDDK); (N); used as a membrane preparation
- test_details: Measurement of inhibitory effect against DGAT2 enzyme activity (SPA, Phospholipid FlashPlate, [14C]-TG production)
- experimental_context: concentration inhibiting [14C]-labeled triacyl glycerol (TG) production by 50%; 2 μg DGAT2-membrane protein from Sf-21 cells, 37° C.
Please report pIC50 as the negative decimal logarithm of the molar concentration, giving only the number.

// solved cases for pIC50 follow
CCOc1ccccc1O[C@@H]1CCCN(c2cncc(NC(=O)Cc3cccc(C(=O)O)c3)n2)C1 = 5.35
CCOc1ccccc1O[C@@H]1CCCN(c2cncc(NC(=O)/C=C/C34CCC(C(=O)O)(CC3)CC4)n2)C1 = 7.01
CCOc1ccccc1O[C@@H]1CCCN(c2cncc(NC(=O)C3(C)CCNC3)n2)C1 (stereo partly drawn) = 5.21

What measured pIC50 goes with `CCOc1ccccc1O[C@@H]1CCCN(c2ccnc(NC(=O)Cc3ccc(CC(C)(C)C(=O)O)cc3)n2)C1` ? 6.82

// returns reported pIC50 for input `CCOc1ccccc1O[C@@H]1CCCN(c2cccc(NC(=O)Cc3ccc(CC(=O)O)cc3)n2)C1` 5.57

Field request: pIC50 | item: `CCOc1ccccc1O[C@@H]1CCCN(c2cncc(NC(=O)c3ccc(C(C)(C)C(=O)O)cc3)n2)C1` 5.04

Please report the recorded pIC50 for `CCOc1cccnc1O[C@@H]1CCCN(c2nccc(NC(=O)Cc3ccc(CC(C)(C)C(=O)O)cc3)n2)C1` . 6.85

Need pIC50 of `CCOc1ccccc1O[C@@H]1CCCN(c2cncc(NC(=O)c3ccc(OC)cc3)n2)C1` , thanks. 7.05

* * *

- system_under_test: Recombinant human DGAT2 protein (Homo sapiens)
- Construct: FLAG (DYKDDDDK); (N); used as a membrane preparation
- test_details: Measurement of inhibitory effect against DGAT2 enzyme activity (SPA, Phospholipid FlashPlate, [14C]-TG production)
- experimental_context: concentration inhibiting [14C]-labeled triacyl glycerol (TG) production by 50%; 2 μg DGAT2-membrane protein from Sf-21 cells, 37° C.
pIC50: −log10 of the molar value.
Binning of pIC50 into classes: lower level = under 6, middle level = from 6 up to 7, upper level = 7 and over

CCOc1ccccc1O[C@@H]1CCCN(c2cncc(NC(=O)Cc3ccc(OCC(C)(C)C(=O)O)cc3)n2)C1 = middle level

Category of `CCOc1ccccc1O[C@@H]1CCCN(c2cncc(NC(=O)CC(C)(C)CC(=O)O)n2)C1` , please. lower level

Hello team, could you let me know which band the following compound falls into: `CCOc1ccccc1O[C@@H]1CCCN(c2cncc(NC(=O)c3ccccc3C(=O)O)n2)C1` lower level

Which category does the recorded pIC50 put `CCOc1ccccc1O[C@@H]1CCCN(c2cncc(NC(=O)C3CCN(S(=O)(=O)C(C)C)CC3)n2)C1` in? upper level

# bin label for `CCOc1ccccc1O[C@@H]1CCCN(c2cncc(NC(=O)CCc3ccc(C(=O)O)c(OC)c3)n2)C1` middle level

* * *

- system_under_test: Recombinant human DGAT2 protein (Homo sapiens)
- Construct: FLAG (DYKDDDDK); (N); used as a membrane preparation
- test_details: Measurement of inhibitory effect against DGAT2 enzyme activity (SPA, Phospholipid FlashPlate, [14C]-TG production)
- experimental_context: concentration inhibiting [14C]-labeled triacyl glycerol (TG) production by 50%; 2 μg DGAT2-membrane protein from Sf-21 cells, 37° C.
measured_endpoint: pIC50
Answer as the number alone; pIC50 is minus log10 of concentration in mol/L.

Consider the reported pIC50 for these molecules:
CCOc1cccnc1O[C@@H]1CCCN(c2cncc(NC(=O)CCC34CCC(C(=O)O)(CC3)CC4)n2)C1 = 6.60
CCOc1ccccc1O[C@@H]1CCCN(c2cncc(NC(=O)Cc3ccc(CC(=O)O)cc3)n2)C1 = 5.96
CCOc1ccccc1O[C@@H]1CCCN(c2cccc(NC(=O)Cc3ccc(CC(C)(C)C(=O)O)cc3)n2)C1 = 6.60
CCOc1ccccc1O[C@@H]1CCCN(c2cncc(NC(=O)CCc3ccc(C4(C(=O)O)CC4)cc3)n2)C1 = 7.18
CCOc1ccccc1O[C@@H]1CCCN(c2cncc(NC(=O)N3CCC(C(=O)O)C3)n2)C1 (stereo partly shown) = 4.29

// returns reported pIC50 for input `CCOc1ccccc1O[C@@H]1CCCN(c2cncc(NC(=O)Cc3ccc(OCC(=O)O)cc3)n2)C1` 5.54

I'd like to know its pIC50. The molecule in question is `CCOc1ccccc1O[C@@H]1CCCN(c2nccc(NC(=O)Cc3ccc(CC(C)(C)C(=O)O)cc3)n2)C1` 7.22

* * *

- system_under_test: Recombinant human DGAT2 protein (Homo sapiens, UniProt Q96PD7)
- Construct: FLAG (DYKDDDDK); (N); used as a membrane preparation
- test_details: Measurement of inhibitory effect against DGAT2 enzyme activity (SPA, Phospholipid FlashPlate, [14C]-TG production)
- experimental_context: concentration inhibiting [14C]-labeled triacyl glycerol (TG) production by 50%; 2 μg DGAT2-membrane protein from Sf-21 cells, 37° C.
IC50 values by entry
Return type: number; implicit unit nM.

CCOc1ccccc1O[C@@H]1CCCN(c2cncc(NC(=O)c3cccc(-c4ccc(CC(C)(C)C(=O)O)cc4)c3)n2)C1 = 380
CCOc1cccnc1O[C@@H]1CCCN(c2cncc(NC(=O)CCc3cccc(CC(C)(C)C(=O)O)c3)n2)C1 = 100
CCOc1ccccc1O[C@@H]1CCCN(c2cncc(NC(=O)C3CCN(c4ccc(C(=O)O)cc4)CC3)n2)C1 = 1000
CCOc1ccccc1O[C@@H]1CCCN(c2cccc(NC(=O)CCc3ccc(C(C)(C)C(=O)O)cc3)n2)C1 = 350

Consider the compound shown here: `CCOc1ccccc1O[C@@H]1CCCN(c2cncc(NC(=O)Cc3ccc(OCCCC(=O)O)cc3)n2)C1` What is its recorded IC50? 460

Reported IC50, compound `CCOc1ccccc1O[C@@H]1CCCN(c2cncc(NC(=O)c3ccc(CC(=O)O)cc3)n2)C1` : ____ 4000

Requested read-out: IC50. Entry: `CCOc1cccnc1O[C@@H]1CCCN(c2ccnc(NC(=O)Cc3ccc(CC(C)(C)C(=O)O)cc3)n2)C1` 140

* * *

- system_under_test: Recombinant human DGAT2 protein (Homo sapiens, UniProt Q96PD7)
- Construct: FLAG (DYKDDDDK); (N); used as a membrane preparation
- Sequence (Q96PD7 1-388): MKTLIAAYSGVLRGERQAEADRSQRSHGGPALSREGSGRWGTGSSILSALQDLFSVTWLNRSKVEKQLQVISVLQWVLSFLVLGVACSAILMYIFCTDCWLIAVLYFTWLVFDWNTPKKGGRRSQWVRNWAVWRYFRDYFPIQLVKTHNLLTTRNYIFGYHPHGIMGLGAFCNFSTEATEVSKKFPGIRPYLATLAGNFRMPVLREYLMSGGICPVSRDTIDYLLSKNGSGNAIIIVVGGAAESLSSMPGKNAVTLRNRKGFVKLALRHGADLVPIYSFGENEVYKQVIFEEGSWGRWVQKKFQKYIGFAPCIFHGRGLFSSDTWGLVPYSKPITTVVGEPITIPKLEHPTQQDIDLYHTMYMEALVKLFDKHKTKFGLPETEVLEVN
- test_details: Measurement of inhibitory effect against DGAT2 enzyme activity (SPA, Phospholipid FlashPlate, [14C]-TG production)
- experimental_context: concentration inhibiting [14C]-labeled triacyl glycerol (TG) production by 50%; 2 μg DGAT2-membrane protein from Sf-21 cells, 37° C.
pIC50: −log10 of the molar value.
Outcome: 1 (yes) for pIC50 of at least 7; 0 (no) for anything lower.

Some solved cases for reference:
CC(C)Oc1ccccc1O[C@@H]1CCCN(c2cncc(NC(=O)Cc3ccc(CC(=O)O)cc3)n2)C1 [Example 90] = 0 (no)
CCOc1cccnc1O[C@@H]1CCCN(c2cncc(NC(=O)Cc3ccc(CC(C)(C)C(=O)O)cc3)n2)C1 [Example 116] = 1 (yes)
CCOc1ccccc1O[C@@H]1CCCN(c2cncc(NC(=O)Nc3cc(C(F)(F)F)cc(C(F)(F)F)c3)n2)C1 [Example 1] = 1 (yes)
CCOc1ccccc1O[C@@H]1CCCN(c2cncc(NC(=O)CCc3ccc(C(=O)O)c(F)c3)n2)C1 [Example 44] = 0 (no)
CCOc1ccccc1O[C@@H]1CCCN(c2nccc(NC(=O)C(C)(C)c3ccc(CC(C)(C)C(=O)O)cc3)n2)C1 [Example 124] = 0 (no)
CCOc1ccccc1O[C@@H]1CCCN(c2cncc(NC(=O)Cc3ccc(O[C@@H](C)C(=O)O)cc3)n2)C1 [Example 104] = 0 (no)

Dear colleague, could you confirm whether CC(C)(Cc1ccc(CC(=O)Nc2cncc(N3CCC[C@@H](Oc4ccccc4OC4CCC4)C3)n2)cc1)C(=O)O [Example 96] has pIC50 at or above 7? 0 (no)

Is pIC50 at least 7? Consider CCOc1ccccc1O[C@@H]1CCCN(c2cncc(NC(=O)C(C)Cc3ccc(C(=O)O)cc3)n2)C1 (stereo partly shown) [Example 43] 0 (no)

Kindly determine if pIC50 recorded for CCOc1ccccc1O[C@@H]1CCCN(c2cncc(NC(=O)CCC(C)(C)C(=O)O)n2)C1 [Example 24] is above or exactly 7. 0 (no)
